Consider the following compounds and their measured IC50 readings.
Target: ShHTL7 M219V (Striga hermonthica, UniProt A0A0M3PNA2, M219V)
Sequence (A0A0M3PNA2 whole entry M219V): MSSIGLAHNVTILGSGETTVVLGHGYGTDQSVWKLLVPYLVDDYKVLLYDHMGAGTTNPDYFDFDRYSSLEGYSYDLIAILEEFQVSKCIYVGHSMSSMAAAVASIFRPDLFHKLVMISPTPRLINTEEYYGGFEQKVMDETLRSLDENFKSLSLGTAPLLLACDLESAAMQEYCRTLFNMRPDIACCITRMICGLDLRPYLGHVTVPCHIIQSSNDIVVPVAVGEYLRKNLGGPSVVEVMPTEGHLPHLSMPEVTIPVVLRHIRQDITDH
Assay: YLG competitive inhibition, ShHTL7 mutant M219V
The reply should consist of the numeric value with the unit placed after it.

compound | IC50
CC1=C[C@H](OC(=O)N2CCN(C(=O)COc3ccc(Br)cc3C)CC2)OC1=O [(S)-4a] | 0.347 µM

Query: IC50; subject: CC1=C[C@@H](OC(=O)N2CCN(C(=O)COc3ccc(Br)cc3C)CC2)OC1=O [(R)-4a] 22 µM

----------
In this section, each of the compounds is paired with its reported P. aegyptiaca seed germination activity, source data average.
Test system: P. aegyptiaca seeds
Experiment: P. aegyptiaca seed germination assay
Type: in vivo, Phelipanche aegyptiaca
Set-up: unit of the concentration uncertain
Settings: 1 (unit uncertain) as printed; Supplementary Fig. 9b
Only the number, expressed in %, is required.

Known results for compounds:
compound | measurement_target | numeric_result
CCCCOc1ccc(S(=O)(=O)N2CCN(C(=O)OC3C=C(C)C(=O)N3C)CC2)cc1 (centres unmarked) | P. aegyptiaca seeds | 14.0733
CC1=CC(CC(=O)N2CCN(C(=O)COc3ccc(Br)cc3C)CC2)OC1=O (centres unmarked) | P. aegyptiaca seeds | 17.2667
CC1=CC(OC(=O)N2CCN(C(=O)COc3ccc(Br)cc3C)CC2)CC1=O (centres unmarked) | P. aegyptiaca seeds | 63.9751
CC1=C[C@H](O/C=C2/C(=O)O[C@@H]3c4ccccc4C[C@H]23)OC1=O (racemic) [rac-GR24, reference compound] | P. aegyptiaca seeds | 95.3227

Shift focus to the following entry.
What does the data say about its P. aegyptiaca seed germination activity, source data average? Entry: CC1=CC(OC(=O)N2CCN(C(=O)COc3ccc(Br)cc3C)CC2)N(C)C1=O (centres unmarked) 41.0534

----------
Biological target: ShHTL7 (Striga hermonthica)
Sequence (A0A0M3PNA2 entry or part of it): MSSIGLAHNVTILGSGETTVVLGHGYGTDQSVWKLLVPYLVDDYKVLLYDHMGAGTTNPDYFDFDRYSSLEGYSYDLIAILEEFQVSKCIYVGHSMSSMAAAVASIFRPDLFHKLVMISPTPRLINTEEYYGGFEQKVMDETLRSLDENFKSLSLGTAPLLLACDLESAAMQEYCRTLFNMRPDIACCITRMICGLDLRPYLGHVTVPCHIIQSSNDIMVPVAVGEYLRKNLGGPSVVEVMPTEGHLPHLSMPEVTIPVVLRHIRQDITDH
Test: Competitive inhibition of ShHTL7 with Yoshimulactone Green (YLG) as substrate
Format: biochemical
Conditions: IC50 (Supplementary Table 1), YLG used as the substrate; means ± SD, n = 3
metric_name: pIC50
Please express pIC50 as -log10 of the molar concentration.

// returns reported pIC50 for input O=C(COc1c(F)c(F)c(F)c(F)c1F)N1CCN(CC2CC3C=CC2C3)CC1 (stereo not shown) 6.64

Then Cc1cc(Br)ccc1OCC(=O)N1CCN(CC2CC3C=CC2C3)CC1 (stereo not shown) ? 5.13

Could you do the same for Cc1ccc(OCC(=O)N2CCN(CC3CC4C=CC3C4)CC2)cc1 (stereo not shown) , please? 4.66

Same again, this time with Cc1cccc(OCC(=O)N2CCN(CC3CC4C=CC3C4)CC2)c1 (stereo not shown) 4.97

----------
A collection of molecules and their measured IC50
Target: ShHTL7 T142L (Striga hermonthica, UniProt A0A0M3PNA2, T142L)
Sequence (A0A0M3PNA2 whole entry T142L): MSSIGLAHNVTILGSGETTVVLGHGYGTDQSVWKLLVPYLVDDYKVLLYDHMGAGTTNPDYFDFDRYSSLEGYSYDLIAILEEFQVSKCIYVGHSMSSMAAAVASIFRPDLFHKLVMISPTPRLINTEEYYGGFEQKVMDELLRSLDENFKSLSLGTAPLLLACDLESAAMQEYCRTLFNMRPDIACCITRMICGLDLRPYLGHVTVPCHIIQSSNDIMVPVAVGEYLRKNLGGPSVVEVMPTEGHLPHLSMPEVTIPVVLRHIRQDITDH
Test: YLG competitive inhibition, ShHTL7 mutant T142L
Respond with the bare value in µM.

molecule | IC50, µM
CC1=C[C@@H](OC(=O)N2CCN(C(=O)COc3ccc(Br)cc3C)CC2)OC1=O [(R)-4a] | 1.88

Lab note: next molecule to report on.
// IC50 lookup, key: CC1=C[C@H](OC(=O)N2CCN(C(=O)COc3ccc(Br)cc3C)CC2)OC1=O [(S)-4a] 0.3
